MEASUREMENT PARAMETERS: human, plasma, oral, tmax, midazolam alone or with mavacamten
PROPERTY MEASURED: Tmax

Value of measured Tmax for the entry Cc1ncc2n1-c1ccc(Cl)cc1C(c1ccccc1F)=NC2 [Midazolam] : < 1 h

====

MEASUREMENT PARAMETERS: human, plasma, po, 5 mg
PROPERTY MEASURED: AUC(0-t) (ng·h/mL)
One number for each entry, in ng·h/mL.

Value of measured AUC(0-t) for the entry Cc1ncc2n1-c1ccc(Cl)cc1C(c1ccccc1F)=NC2 [Midazolam] : 51
